Test system: wild-type (GRR) human STING cGAMP binding domain (residues 155-341)
Construct: His-TEV-hSTING (WT); TEV protease cleavage site (N); made in house; host or cells: E. coli BL21 DE3
Assay: Differential Scanning Fluorimetry (DSF), stability of STING protein against thermal denaturation
Conditions: 100 uM compound, 3 uM target protein
t if DSF ΔTm (K) is below 30 K. f if not; exact matches included in f.

Input: Item COCc1cc(C(N)=O)ccc1-c1nc(-c2cccc3nn(-c4cn(C5CC5)nc4OC)cc23)c(C2CC2)n1C [Example 12] : DSF ΔTm (K) beneath 30 K, strictly?
Output: t

Input: Item COc1nn(C2CC2)cc1-n1cc2c(-c3nc(-c4ccc(C(N)=O)cc4OCC(F)F)n(C)c3C3CC3)cccc2n1 [Example 6] : DSF ΔTm (K) beneath 30 K, strictly?
Output: t

Input: Item COc1nn(C2CC2)cc1-n1cc2c(-c3nc(-c4ccc(C(=O)N(C)C)cc4OC(F)(F)F)n(C)c3C3CC3)cccc2n1 [Example 15] : DSF ΔTm (K) beneath 30 K, strictly?
Output: t

Input: Item COc1nn(C2CC2)cc1-n1cc2c(-c3nc(-c4ccc(C(N)=O)cc4OC(F)(F)F)n(C)c3C3CC3)cccc2n1 [Example 16] : DSF ΔTm (K) beneath 30 K, strictly?
Output: f

Input: Item Cn1c(-c2ccc(P(C)(C)=O)cc2OC(F)(F)F)nc(-c2cccc3nn(-c4cc(C(F)(F)F)[nH]n4)cc23)c1C1CC1 [Example 21] : DSF ΔTm (K) beneath 30 K, strictly?
Output: t

====

Test system: STING
Construct: from tissue; host or cells: human whole blood from healthy donors
Test: Human whole blood assay (HWBA), cGAMP-stimulated IFNα2α production
Type: cell-based
Conditions: human whole blood stimulated by cGAMP
1.0 if IC50 is below 80 nM. 0.0 if not; exact matches included in 0.0.

Input: Item COc1nn(C)cc1-n1cc2c(-c3nc(-c4ccc(C(=O)N(C)C)cc4OC(F)(F)F)n(C)c3C3CC3)cccc2n1 [Example 3] : IC50 beneath 80 nM, strictly?
Output: 0.0

Input: Item COc1nn(C2CC2)cc1-n1cc2c(-c3nc(-c4ccc(C(N)=O)cc4OCC(F)F)n(C)c3C3CC3)cccc2n1 [Example 6] : IC50 beneath 80 nM, strictly?
Output: 1.0

Input: Item CC[P@](C)(=O)c1ccc(-c2nc(-c3cccc4nn(-c5cn(C6CC6)nc5OC)cc34)c(C3CC3)n2C)c(OC(F)(F)F)c1 [Example 14] : IC50 beneath 80 nM, strictly?
Output: 1.0

Input: Item CC[P@](C)(=O)c1ccc(-c2nc(-c3cccc4nn(-c5cc(C(F)F)n(C)n5)cc34)c(C3CC3)n2C)c(OC(F)(F)F)c1 [Example 7] : IC50 beneath 80 nM, strictly?
Output: 1.0

Input: Item COc1nn(C2CC2)cc1-n1cc2c(-c3nc(-c4ccc(C(=O)N(C)C)cc4OC(F)(F)F)n(C)c3C3CC3)cccc2n1 [Example 15] : IC50 beneath 80 nM, strictly?
Output: 0.0

Input: Item CCOc1nn(C)cc1-n1cc2c(-c3nc(-c4ccc(C(N)=O)cc4OC(F)(F)F)n(C)c3C3CC3)cccc2n1 [Example 4] : IC50 beneath 80 nM, strictly?
Output: 0.0

Input: Item Cn1c(-c2ccc(P(C)(C)=O)cc2OC(F)(F)F)nc(-c2cccc3nn(-c4cc(C(F)(F)F)[nH]n4)cc23)c1C1CC1 [Example 21] : IC50 beneath 80 nM, strictly?
Output: 0.0

Input: Item CC[P@@](C)(=O)c1ccc(-c2nc(-c3cccc4nn(-c5cn(C6CC6)nc5OC)cc34)c(C3CC3)n2C)c(OC(F)(F)F)c1 [Example 13] : IC50 beneath 80 nM, strictly?
Output: 1.0

Input: Item CC[P@](C)(=O)c1ccc(-c2nc(-c3cccc4[nH]c(-c5cc(C(F)(F)F)n(C)n5)nc34)c(C3CC3)n2C)c(OC(F)(F)F)c1 [Example 18] : IC50 beneath 80 nM, strictly?
Output: 0.0

Input: Item COc1nn(C2CC2)cc1-n1cc2c(-c3nn(-c4ccc(P(C)(C)=O)cc4C)c(C)c3C(C)C)cccc2n1 [Example 9] : IC50 beneath 80 nM, strictly?
Output: 0.0

Input: Item CCP(=O)(CC)c1ccc(-c2nc(-c3cccc4nn(-c5cc(C(F)(F)F)n(C)n5)cc34)c(C3CC3)n2C)c(OC(F)(F)F)c1 [Example 17] : IC50 beneath 80 nM, strictly?
Output: 0.0

Input: Item Cn1nc(-n2cc3c(-c4nc(-c5ccc(P(C)(C)=O)cc5OC(F)(F)F)n(C)c4C4CC4)cccc3n2)cc1C(F)F [Example 2] : IC50 beneath 80 nM, strictly?
Output: 0.0

Input: Item COc1nn(CC(C)(C)O)cc1-n1cc2c(-c3nc(-c4ccc(C(N)=O)cc4OC(F)(F)F)n(C)c3C3CC3)cccc2n1 [Example 11] : IC50 beneath 80 nM, strictly?
Output: 0.0

Input: Item Cn1nc(-n2cc3c(-c4nc(-c5ccc(P(C)(C)=O)cc5OC(F)(F)F)n(C)c4C4CC4)cccc3n2)cc1C(F)(F)F [Example 20] : IC50 beneath 80 nM, strictly?
Output: 0.0

Input: Item COCc1cc(C(N)=O)ccc1-c1nc(-c2cccc3nn(-c4cn(C5CC5)nc4OC)cc23)c(C2CC2)n1C [Example 12] : IC50 beneath 80 nM, strictly?
Output: 0.0

Input: Item CC[P@](C)(=O)c1ccc(-c2nc(-c3cccc4nn(-c5cc(C6CC6)n(C)n5)cc34)c(C3CC3)n2C)c(OC(F)(F)F)c1 [Example 19] : IC50 beneath 80 nM, strictly?
Output: 0.0

Input: Item COc1nn(C2CC2)cc1-n1cc2c(-c3nc(-c4ccc(C(N)=O)cc4OC(F)(F)F)n(C)c3C3CC3)cccc2n1 [Example 16] : IC50 beneath 80 nM, strictly?
Output: 1.0
